system: A549/ATCC NSCLC; experiment: NCI-60 one-dose screen, 48 h (100 = growth as untreated, 0 = no growth, -100 = all killed); details: 10 µM unless noted
About 83,000 compounds went through this panel and 20% of them were active in at least one assay; those are over-represented in the sample as a whole. The source made the active and inactive calls. How the source made its calls: active means growth percent below 10; inactive means the rest.
PROPERTY LABEL: growth

Would you please look over these solved cases?
[
  {
    "COMPOUND": "Clc1cccc(NCOOC2(OOCNc3cccc(Cl)c3)CCCCC2)c1",
    "growth": "3.1% (active)"
  },
  {
    "COMPOUND": "C/C(CC(C)(C)N1CC1)=N\\NC(=O)Nc1cccc2ccccc12",
    "growth": "63% (inactive)"
  },
  {
    "COMPOUND": "Cc1cc(-c2nc3cc(F)ccc3[se]2)cc(F)c1N",
    "growth": "66.9% (inactive)"
  },
  {
    "COMPOUND": "C[S+]1C=Cc2ccccc2C1c1ccc(Cl)cc1 (stereo not given)",
    "growth": "78.9% (inactive)"
  }
]

Reported growth (A549/ATCC NSCLC) for entry N/C(=N\N=C\c1ccc(-c2ccccc2)cc1)N[N+](=O)[O-] is 38.4% (inactive)

I looked up COc1ccc(/C=C\c2cc(OC)c(OC)c(OC)c2)cc1OCC(=O)Nc1nc2ccc(OC(F)(F)F)cc2s1 and its growth for A549/ATCC NSCLC was 66.5% (inactive)

The compound O=[N+]([O-])c1cc([N+](=O)[O-])c(Nn2c3ccccc3c3ccccc32)c([N+](=O)[O-])c1 on A549/ATCC NSCLC: growth was 4.97% (active)

The compound CC12CCC3C(CCC4Cc5[nH]c6ccccc6c5CC43C)C1CCC2O (stereo not given) , tested on A549/ATCC NSCLC, showed growth of 41.5% (inactive)

Query CN(C)CCCOc1ccc2c(c1)c(C(=O)C(=O)NCCO)cn2Cc1ccccc1 on A549/ATCC NSCLC; growth returned: 105% (inactive)

Item COc1ccc(/C=C\c2cc(OC)c(OC)c(OC)c2)c(NS(=O)(=O)c2ccc(Cl)cc2)c1O ; assay system A549/ATCC NSCLC; growth reported as 16.7% (inactive)
